assayed_system: Recombinant human Factor IX (rhFIX, Genetics Institute) (human, UniProt P00740 47-461)
Sequence (P00740 47-461 limits assumed): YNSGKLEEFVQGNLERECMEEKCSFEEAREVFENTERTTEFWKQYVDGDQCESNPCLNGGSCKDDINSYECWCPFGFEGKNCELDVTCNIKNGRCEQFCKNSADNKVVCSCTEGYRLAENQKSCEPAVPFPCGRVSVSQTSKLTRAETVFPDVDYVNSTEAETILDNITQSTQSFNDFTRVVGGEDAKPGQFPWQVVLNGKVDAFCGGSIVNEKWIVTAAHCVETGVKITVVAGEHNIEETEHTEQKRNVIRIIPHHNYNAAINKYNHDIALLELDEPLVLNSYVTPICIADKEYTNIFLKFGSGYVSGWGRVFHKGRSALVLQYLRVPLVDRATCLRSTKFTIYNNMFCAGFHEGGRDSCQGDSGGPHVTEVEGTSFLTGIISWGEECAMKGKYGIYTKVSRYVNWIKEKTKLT
assay_text: titration calorimetry, calculated for 25 C by the van't Hoff equation, 10 mM CaCl2
parameter_measured: Kd (nM)
Value expressed in nM; do not type the unit.

Using the record for humanized anti-human Factor IX monoclonal antibody SB 257732 (antibody, human IgG1, V domains shown, Human IgG1 and kappa constant regions from the vectors; also called F9HZHC 3-0 / F9HZLC 3-0) VH: QIQLVQSGSELKKPGASVKVSCKASGYTFTNYGMNWVRQAPGQGLEWMGWINTRNGKSTYVDDFKGRFVFSLDTSVSTAYLQISSLKAEDTAVYFCTREGNMDGYFPFTYWGQGTLVTVSS VL: QIVLTQSPSSLSASVGDRVTITCRASSSVNYMHWYQQKPGKAPKPWIYATSNLASGVPSRFSGSGSGTDYTLTISSLQPEDFATYYCQQWSINPRTFGGGTKLEIKR , state its measured Kd.
4

Specify Kd for murine anti-Factor IX monoclonal antibody BC2 (antibody, mouse IgG2a, V domains shown, also called BC2 mAb; BC2 Antibody) VH: QIQLVQSGPELKKPGETVKISCKASGYTFTNYGMNWVKQAPGKGLKWMGWINTRNGKSTYVDDFKGRFAFSLESSASTANLQIDNLKDEDTATYFCTREGNMDGYFPFTYWGQGTLVTVSA VL: QIVLSQSPAILSASPGEKVTMTCRASSSVNYMHWYQQKPGSSPKPWIYATSNLASGVPARFSGSGSGTSYSLTISRVEAEDAATYYCQQWSINPRTFGGGTKLEIKR and stop.
10

// Input: humanized anti-human Factor IX monoclonal antibody SB 249417 (antibody, V domains shown, also called F9HZHC 1-1 / F9HZLC 2-0) VH: QVQLVQSGSELKKPGASVKVSCKASGYTFTNYGMNWVRQAPGQGLKWMGWINTRNGKSTYVDDFKGRFVFSLDSSVSTAYLQISSLKADDTAVYYCTREGNMDGYFPFTYWGQGTLVTVSS VL: QIVLTQSPSSLSASVGDRVTITCRASSSVNYMHWYQQKPGKAPKPWIYATSNLASGVPSRFSGSGSGTDYTFTISSLQPEDIATYYCQQWSINPRTFGQGTKVEIKR . Output its Kd only.
4
